The reported numbers originate from PubChem BioAssay (NCATS).

# Tested on: HIV-1 nucleocapsid protein NCp7 (binding to TG oligonucleotide)
# experiment.description: HIV Nucleocapsid (AID 346);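 note: potency is for inhibitors that block NC binding and lower polarization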
# run.conditions: HIV-1 NC / fluorescein-TGTGTGTG probe, fluorescence polarization
Calls of active or inactive are those of the source. The rule behind the calls is not given here.
Possible outcomes: active, inactive

{"columns": ["sample.smiles", "classification"],
 "data": [
  ["COc1ccccc1CN1CC[C@@]2(CCCN(C(=O)c3cccc(F)c3)C2)C1", "inactive"],
  ["COCCn1c(=O)c(-c2ccccc2)nc2cnc(N3CCNCC3)nc21", "inactive"],
  ["Cn1cccc1C(=O)N1CCC[C@@]2(CCN(c3cccc(-c4ccccc4)c3)C2)C1", "inactive"],
  ["COc1ccccc1-c1nccc(-n2ccnc2)n1", "inactive"],
  ["COc1ccc2[nH]cc(CCNc3ncnc4ccc(-c5c(C)noc5C)cc34)c2c1", "inactive"],
  ["CS(=O)(=O)Nc1cccc(-c2cc(Nc3ccccc3)ncn2)c1", "inactive"],
  ["COc1cccc(Cn2c(=O)c(C)nc3cnc(OC)nc32)c1", "inactive"],
  ["COc1ccc(-c2nc3cnc(Nc4cccc(OC)c4)nc3n(C3CC3)c2=O)cc1", "inactive"],
  ["O=C(Nc1ccccc1)N1CCC2(CC1)CCN(C(=O)c1ccncc1)CC2", "inactive"],
  ["Cc1noc(C)c1C(=O)N1CCC2(CCCN(C(=O)Nc3cccc(C#N)c3)C2)CC1", "inactive"],
  ["Cc1cccc(CNc2ncnc3ccc(-c4ccc5c(c4)OCO5)cc23)c1", "inactive"],
  ["CCNc1ncc2ncc(=O)n(C3CC3)c2n1", "inactive"],
  ["CC(C)NC(=O)N1CC[C@@]2(CCCN(C(=O)c3cnccn3)C2)C1", "inactive"],
  ["O=c1c(-c2cccs2)nc2cnc(Nc3ccccc3)nc2n1C[C@H]1CCCO1", "active"],
  ["Cn1cccc1C(=O)N1CCC2(CCN(Cc3ccc(C#N)cc3)CC2)CC1", "inactive"],
  ["CN1CCN(c2ncc3nc(-c4cccc(C#N)c4)c(=O)n(C)c3n2)CC1", "inactive"],
  ["COc1cccc(Nc2ncc3nc(-c4ccc(F)cc4)c(=O)n(C)c3n2)c1", "inactive"],
  ["CN(C)C(=O)c1ccc(-c2nccc(Nc3ccc(F)cc3)n2)cc1", "inactive"],
  ["O=c1c(-c2ccc(Cl)cc2)nc2cnc(N3CCNCC3)nc2n1CCc1ccccc1", "inactive"],
  ["CC(C)CN1CCC2(CC1)CCN(C(=O)c1cccn1C)CC2", "inactive"],
  ["O=c1cnc2cnc(N3CCNCC3)nc2n1CCc1ccccc1", "inactive"],
  ["Cc1noc(C)c1C(=O)N1CCC[C@@]2(CCN(c3ncccn3)C2)C1", "inactive"]
]}

====

# experiment.description: MultiTox-Fluor Cytotoxicity Assay - LYMP1-003 - Dead Cells (AID 961);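 note: cells exposed to compound for 16 h at 37 °C; nearly all actives have a fitted effect of over 70% in size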
# run.conditions: LYMP1-003 lymphoblastoid cells, dead-cell protease fluorescence; series mostly up to 92.2 µM
The source made the active and inactive calls. The call rests on the fitted dose curve; in most records, active means well fitted cell-killing curve with a large enough effect; inconclusive means small, poorly fitted or top-dose-only effect, or effect the other way; inactive means flat fitted curve, though single readings scatter.

{"columns": ["molecule", "outcome"],
 "data": [
  ["O=[N+]([O-])c1cc(Cl)c(Cl)cc1Cl", "inactive"],
  ["N#CCCCCC#N", "inactive"],
  ["OCC(Cl)CCl (stereo unspecified)", "inactive"],
  ["CCCCC(CC)COC(=O)c1ccc(C(=O)OCC(CC)CCCC)c(C(=O)OCC(CC)CCCC)c1 (stereo unspecified)", "inactive"],
  ["ClCC(Cl)Cl", "inactive"],
  ["O=S(=O)(Cl)c1ccccc1", "inactive"],
  ["Clc1cccc2ccccc12", "inactive"],
  ["O=[N+]([O-])c1ccc(Cl)c(Cl)c1Cl", "inactive"],
  ["CCCCCCCCCCCOC(=O)c1ccccc1C(=O)OCCCCCCCCCCC", "inactive"],
  ["Nc1ccc(-c2ccccc2)cc1", "inactive"],
  ["c1ccc(OCC2CO2)cc1 (stereo unspecified)", "inactive"],
  ["Oc1cc(Cl)cc(Cl)c1", "inactive"],
  ["Nn1cnnc1", "inactive"],
  ["COc1ccccc1N", "inactive"],
  ["ClCCBr", "inactive"],
  ["COC(=O)c1ccccc1N", "inactive"]
]}
